# Test system: NQO1 specific enzyme activity in BEAS-2B cells
# experimental protocol: BEAS-2B NQO1 MTT Assay
# Assay type: cell-based
# condition label: Homo sapiens; NQO1 specific activity induction, BEAS-2B cells, 48 hours; read-out: EC50
quantity measured: EC50

{"compound": "CC[C@H]1Cc2ccc(Br)cc2S(=O)(=O)N(Cc2cccc(-n3ncc(C(=O)O)c3[C@@H]3C[C@H]3c3cn(C)nn3)c2)C1 [Example 22]", "result": "1 to 10 nM"}
{"compound": "Cn1cc([C@@H]2C[C@H]2c2c(C(=O)O)cnn2-c2cccc(CN3Cc4ccccc4CC(C)(C)C3)c2)nn1 (racemic) [Example 7]", "result": "100 to 1000 nM"}
{"compound": "CCCCCCN(Cc1cccc(-n2ncc(C(=O)O)c2[C@@H]2C[C@H]2c2cn(C)nn2)c1)S(=O)(=O)c1ccccc1Oc1ccccc1 (racemic) [Example 49]", "result": "100 to 1000 nM"}

----------
EC50 by entry:
# assayed system: full length Keap1 protein / full length NRF2 protein (Homo sapiens, UniProt Q14145)
# Construct: full length NRF2 protein and full length Keap1 protein (Keap1 exists a dimer) are used; His
# Sequence (Q14145 whole entry): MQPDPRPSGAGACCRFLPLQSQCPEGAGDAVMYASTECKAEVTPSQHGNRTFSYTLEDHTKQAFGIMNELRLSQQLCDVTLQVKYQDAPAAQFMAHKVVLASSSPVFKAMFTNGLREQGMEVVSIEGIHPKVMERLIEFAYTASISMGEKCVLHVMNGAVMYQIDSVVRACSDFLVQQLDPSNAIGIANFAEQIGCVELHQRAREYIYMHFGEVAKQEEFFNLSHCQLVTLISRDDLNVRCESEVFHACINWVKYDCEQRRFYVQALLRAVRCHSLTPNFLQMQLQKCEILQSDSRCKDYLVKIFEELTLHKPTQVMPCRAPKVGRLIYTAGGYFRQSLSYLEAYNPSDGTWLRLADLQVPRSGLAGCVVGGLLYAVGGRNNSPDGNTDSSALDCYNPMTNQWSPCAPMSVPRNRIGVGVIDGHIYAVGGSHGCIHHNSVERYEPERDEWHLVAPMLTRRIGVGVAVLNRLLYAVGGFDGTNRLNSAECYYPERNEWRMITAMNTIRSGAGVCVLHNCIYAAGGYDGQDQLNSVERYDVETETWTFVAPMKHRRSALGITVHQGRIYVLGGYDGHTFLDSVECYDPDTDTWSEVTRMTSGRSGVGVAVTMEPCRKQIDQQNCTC
# experimental protocol: NRF2-Keap1 TR-FRET Low Protein Assay
# From the text: In the NRF2-Keap1 TR-FRET (time-resolved fluorescence resonance energy transfer) low protein assay, full length NRF2 protein and full length Keap1 protein (Keap1 exists a dimer) are used. The assay detects a compound's ability to displace the binding of Keap1 FlagHis with biotinylated Avi-NRF2 protein. Biotin-NRF2 binds to streptavidin-europium (a component of the detection mix) and Keap1 FlagHis is recognized by anti-Flag APC (allophycocyanin) antibody (also a component of the detection mix). […]

{"molecule": "Cn1cc([C@@H]2C[C@H]2c2c(C(=O)O)cnn2-c2cccc(CN3Cc4ccccc4CC(C)(C)C3)c2)nn1 (racemic) [Example 7]", "EC50": "100 to 1000 nM"}
{"molecule": "C[C@@H]1Cc2cc(C(F)(F)F)ccc2S(=O)(=O)N(Cc2cccc(-n3ncc(C(=O)O)c3[C@@H]3C[C@H]3c3cnn(C)c3)c2)C1 [Example 33]", "EC50": "10000 to 100000 nM"}
{"molecule": "COc1ccccc1S(=O)(=O)NCc1cccc(-n2ncc(C(=O)O)c2[C@@H]2C[C@H]2c2cn(C)nn2)c1 (racemic) [Example 52]", "EC50": "1000 to 10000 nM"}
{"molecule": "CCCCCCN(Cc1cccc(-n2ncc(C(=O)O)c2[C@@H]2C[C@H]2c2cn(C)nn2)c1)S(=O)(=O)c1cccc(-c2ccccc2)c1 (racemic) [Example 34]", "EC50": "10 to 100 nM"}
{"molecule": "CCC1c2ccccc2OC(C)(C)CN1Cc1cccc(-n2ncc(C(=O)O)c2[C@@H]2C[C@H]2c2cn(C)nn2)c1 (stereo partly drawn) [Example 12]", "EC50": "10000 to 100000 nM"}
{"molecule": "CC[C@@H]1CN(Cc2cccc(-n3ncc(C(=O)O)c3[C@@H]3C[C@H]3c3cn(CC(F)(F)F)nn3)c2)S(=O)(=O)c2ccccc2O1 [Example 29]", "EC50": "10 to 100 nM"}
{"molecule": "COc1ccc(Cl)cc1S(=O)(=O)N(C)Cc1cccc(-n2ncc(C(=O)O)c2[C@@H]2C[C@H]2c2cn(C)nn2)c1 (racemic) [Example 40]", "EC50": "1000 to 10000 nM"}
{"molecule": "CN(Cc1cccc(-n2ncc(C(=O)O)c2[C@@H]2C[C@H]2c2cn(C)nn2)c1)S(=O)(=O)c1ccc(-c2ccccc2)cc1 (relative stereo) [Example 39]", "EC50": "100 to 1000 nM"}
{"molecule": "CCCN(Cc1cccc(-n2ncc(C(=O)O)c2[C@@H]2C[C@H]2c2cn(C)nn2)c1)S(=O)(=O)c1ccccc1C (racemic) [Example 50]", "EC50": "1000 to 10000 nM"}
{"molecule": "CCCCCCN(Cc1cccc(-n2ncc(C(=O)O)c2[C@@H]2C[C@H]2c2cn(C)nn2)c1)S(=O)(=O)c1ccccc1C (racemic) [Example 37]", "EC50": "100 to 1000 nM"}
{"molecule": "CC[C@@H]1CN(Cc2cccc(-n3ncc(C(=O)O)c3[C@@H]3C[C@H]3c3cn(C)nn3)c2)S(=O)(=O)c2ccccc2O1 [Example 3]", "EC50": "10 to 100 nM"}
{"molecule": "C[C@H]1Cc2ccccc2S(=O)(=O)N(Cc2cccc(-n3ncc(C(=O)O)c3[C@@H]3C[C@H]3c3cnn(C)c3)c2)C1 [Example 32]", "EC50": "1000 to 10000 nM"}
{"molecule": "CN(Cc1cccc(-n2ncc(C(=O)O)c2[C@@H]2C[C@H]2c2cn(C)nn2)c1)S(=O)(=O)c1c(Cl)cccc1C(F)(F)F (racemic) [Example 41]", "EC50": "1000 to 10000 nM"}
{"molecule": "CC[C@H]1Cc2ccc(Br)cc2S(=O)(=O)N(Cc2cccc(-n3ncc(C(=O)O)c3[C@@H]3C[C@H]3c3cn(C)nn3)c2)C1 [Example 22]", "EC50": "< 10 nM"}
{"molecule": "CN(Cc1cccc(-n2ncc(C(=O)O)c2[C@@H]2C[C@H]2c2cn(C)nn2)c1)S(=O)(=O)c1cccc(Oc2ccccc2)c1 (racemic) [Example 35]", "EC50": "100 to 1000 nM"}
{"molecule": "CCCCCCN(Cc1cccc(-n2ncc(C(=O)O)c2[C@@H]2C[C@H]2c2cn(C)nn2)c1)S(=O)(=O)c1ccccc1Oc1ccccc1 (racemic) [Example 49]", "EC50": "1000 to 10000 nM"}
{"molecule": "CC[C@@H]1CN(Cc2cc(-n3ncc(C(=O)O)c3C3C[C@H]3c3cn(C)nn3)ccc2C)S(=O)(=O)c2ccccc2O1 (stereo partly drawn) [Example 25]", "EC50": "10 to 100 nM"}
{"molecule": "CC[C@@H]1Cc2ccccc2CN(Cc2cccc(-n3ncc(C(=O)O)c3[C@@H]3C[C@H]3c3cn(C)nn3)c2)C1 [Example 10]", "EC50": "100 to 1000 nM"}

----------
# assayed system: full length Keap1 protein / full length NRF2 protein (Homo sapiens, UniProt Q14145)
# Construct: full length NRF2 protein and full length Keap1 protein (Keap1 exists a dimer) are used; His
# experimental protocol: NRF2-Keap1 TR-FRET Low Protein Assay
# Description: In the NRF2-Keap1 TR-FRET (time-resolved fluorescence resonance energy transfer) low protein assay, full length NRF2 protein and full length Keap1 protein (Keap1 exists a dimer) are used. The assay detects a compound's ability to displace the binding of Keap1 FlagHis with biotinylated Avi-NRF2 protein. Biotin-NRF2 binds to streptavidin-europium (a component of the detection mix) and Keap1 FlagHis is recognized by anti-Flag APC (allophycocyanin) antibody (also a component of the detection mix). […]

{"molecule": "CN(Cc1cccc(-n2ncc(C(=O)O)c2[C@@H]2C[C@H]2c2cn(C)nn2)c1)S(=O)(=O)c1ccccc1Oc1ccccc1 (relative stereo) [Example 38]", "EC50": "0.1 to 1 µM"}
{"molecule": "COc1ccccc1S(=O)(=O)N(Cc1cccc(-n2ncc(C(=O)O)c2[C@@H]2C[C@H]2c2cn(C)nn2)c1)C1CC1 (racemic) [Example 53]", "EC50": "10 to 100 µM"}
{"molecule": "COc1ccccc1S(=O)(=O)N(C)C1CCc2ccc(-n3ncc(C(=O)O)c3[C@@H]3C[C@H]3c3cn(C)nn3)cc21 (stereo partly drawn) [Example 27]", "EC50": "10 to 100 µM"}
{"molecule": "CCCCCCN(Cc1cccc(-n2ncc(C(=O)O)c2[C@@H]2C[C@H]2c2cn(C)nn2)c1)S(=O)(=O)c1ccc(Oc2ccccc2)cc1 (relative stereo) [Example 36]", "EC50": "0.1 to 1 µM"}
{"molecule": "CCOc1ccccc1S(=O)(=O)N(C)Cc1cccc(-n2ncc(C(=O)O)c2[C@@H]2C[C@H]2c2cn(C)nn2)c1 (racemic) [Example 45]", "EC50": "1 to 10 µM"}
{"molecule": "Cc1ccccc1S(=O)(=O)N(C)Cc1cccc(-n2ncc(C(=O)O)c2[C@@H]2C[C@H]2c2cn(C)nn2)c1 (racemic) [Example 42]", "EC50": "1 to 10 µM"}
{"molecule": "Cn1cc([C@@H]2C[C@H]2c2c(C(=O)O)cnn2-c2cccc(CN3Cc4cc(Br)ccc4OC(C)(C)C3)c2)nn1 (racemic) [Example 13]", "EC50": "0.01 to 0.1 µM"}
{"molecule": "CCCC[C@H]1Cc2ccc(C(F)(F)F)cc2S(=O)(=O)N(Cc2cccc(-n3ncc(C(=O)O)c3[C@@H]3C[C@H]3c3cn(C)nn3)c2)C1 [Example 21]", "EC50": "< 0.01 µM"}
{"molecule": "CC[C@H]1Cc2ccccc2S(=O)(=O)N(Cc2cccc(-n3ncc(C(=O)O)c3[C@@H]3C[C@H]3c3cn(C)nn3)c2)C1 [Example 4]", "EC50": "0.01 to 0.1 µM"}
{"molecule": "C[C@H]1Cc2ccc(Br)cc2S(=O)(=O)N(Cc2cccc(-n3ncc(C(=O)O)c3[C@@H]3C[C@H]3c3cn(C)nn3)c2)C1 (racemic) [Example 17]", "EC50": "0.01 to 0.1 µM"}
{"molecule": "C[C@H]1Cc2cc(C(F)(F)F)ccc2S(=O)(=O)N(Cc2cccc(-n3ncc(C(=O)O)c3[C@@H]3C[C@H]3c3cnn(C)c3)c2)C1 [Example 30]", "EC50": "0.1 to 1 µM"}
{"molecule": "C[C@H]1Cc2cc(C(F)(F)F)ccc2S(=O)(=O)N(Cc2cccc(-n3ncc(C(=O)O)c3[C@@H]3C[C@H]3c3cn(C)nn3)c2)C1 (racemic) [Example 19]", "EC50": "1 to 10 µM"}
